The measurements presented in this section are drawn from PubChem BioAssay (NCI).

tested on: T-47D breast; test: NCI tumour cell line growth inhibition, 48 h
Each entry below carries its recorded TGI.

Compound	Result
CC1=Nc2nc(Cl)cn2C(=O)C1(Cl)Cl	> 10 µM
CC(C)CCC(=O)c1ccoc1	> 100 µM
CN[C@H]1C=C[C@@H]2/C=C(C)/C=C/[C@@H](C)[C@H]([C@H](C)[C@H](O)[C@@H](C)NC(C)=O)OC(=O)/C=C/C=C(C)\C=C\[C@]2(C)C1	> 49 µM
C[C@H](CCC(=O)NCCS(=O)(=O)O)[C@H]1CC[C@H]2[C@@H]3CC[C@@H]4C[C@H](O)CC[C@]4(C)[C@H]3CC[C@]12C	> 100 µM
COC(=O)/C=C\n1c(C)cc(=O)[nH]c1=O	> 100 µM
CCCCc1ccc(Nc2nc3c(ncn3C3CC(O)C(CN=[N+]=[N-])O3)c(=O)[nH]2)cc1 (centres undefined)	> 100 µM
CCCCC(C#N)(OP1(=O)OC(c2ccccc2)C(C)N1C)c1ccccc1 (centres undefined)	55.1 µM
COc1cc(/C=C2\C(=O)Nc3cc(C)c(O)cc32)cc(OC)c1OC	37.9 µM

Item COc1cc(-c2cc3ncccc3c3nc(N)c4cccnc4c23)cc(OC)c1OC : provide TGI 32 µM

Please list TGI recorded for the compound C[n+]1c(-c2ccc(/C=N/NC(=N)N/N=C/c3ccc(-c4cn5cc(Cl)ccc5[n+]4C)cc3)cc2)cn2cc(Cl)ccc21 > 100 µM

Identify TGI associated with the compound C#Cc1cccc(N2C(=O)CCC2=O)c1 56.8 µM

Supply reported TGI belonging to this compound: O=C(Nc1cccc(-n2ccc3c(NC(=O)c4ccccc4)nccc32)c1)Nc1cc(C(F)(F)F)cc(C(F)(F)F)c1 > 50 µM

# return recorded TGI for input CCCC(=O)NC1=C(Cl)C(=O)c2ccccc2C1=O 8.02 µM

Give a short answer stating reported TGI for Cc1[nH]c2c(c1C)S(=O)(=O)c1cc3ccccc3nc1N2 . > 100 µM

* * *

system: NCI-H460 lung; assay: NCI tumour cell line growth inhibition, 48 h
Measured Attribute: TGI

Please review the entries below; each comes with its answer.
Molecule	Target System	TGI
CC(=O)O[C@H]1CC[C@@]2(C)C(=CC[C@H]3[C@@H]4CC[C@H](c5cc(C(F)(F)F)n(C(C)=O)n5)[C@@]4(C)CC[C@@H]32)C1	NCI-H460 lung	12.6 µM
CC(=O)[C@@]1(C)CC2(CCN(C)CC2)OC1C (stereo partly drawn)	NCI-H460 lung	> 100 µM

Now look at this entry.
# return recorded TGI for input O=[N+]([O-])C1CC/C(=N/O)c2nonc21 (stereo not drawn) > 10 µM

* * *

system: RXF 393 renal; assay: NCI tumour cell line growth inhibition, 48 h
log10(TGI) overview
// units: µM (pre-log); metric: TGI; scale: log10

State log10(TGI) on RXF 393 renal. Entry: O=S(=O)(CCBr)CCBr 0.77

Give log10(TGI) for this entry on RXF 393 renal: CC(O)c1cc2c(s1)C(=O)c1sccc1C2=O (centres undefined) -0.45

Given O=C(/C=C/c1ccc(O)cc1)c1ccc2c(c1)OCO2 , report its log10(TGI) on RXF 393 renal. 1.59

* * *

test system: 786-0 renal; assay: NCI tumour cell line growth inhibition, 48 h
Measured Attribute: TGI (µM)
Give just the number in µM; leave the unit off.

Substance Smiles	Scale Unit	TGI
Cc1nc(Nc2ccc(Cl)cc2)sc1C(=O)NNc1ccc([N+](=O)[O-])cc1[N+](=O)[O-]	µM	29.8
COc1ccc2nc3c([N+](=O)[O-])ccc4c3c(c2c1)NCCN4CCO	µM	1.46

# evaluate next
Please look at COc1cc(-c2cc3ncccc3c3nc(N)c4cccnc4c23)cc(OC)c1OC and tell me its recorded TGI on 786-0 renal. 10.8

* * *

Each record here notes measured TGI.
system: HOP-18 NSCLC; assay: NCI tumour cell line growth inhibition, 48 h

Tell me TGI of CC(=O)[O][Ga]([Cl])[O]C(C)=O when tested on HOP-18 NSCLC. > 100 µM

Fetch value of TGI on HOP-18 NSCLC for Cc1ccc(N2Cc3c(ccc4ccccc34)OP2(=O)Oc2ccc(Cl)c(C)c2)cc1 (centres undefined) . > 100 µM

Report its TGI with HOP-18 NSCLC as the test system: COCCCNC(=O)C1C(=O)N(CCCOC)C(=O)/C1=N\N (centres undefined) > 100 µM

Would you please give the reported TGI of C[N-]c1nnnn1C.[Au+].c1ccc([PH+](c2ccccc2)c2ccccc2)cc1 with HOP-18 NSCLC? 5.96 µM

* * *

tested on: A498 renal; test: NCI tumour cell line growth inhibition, 48 h
Measured Attribute: GI50

Examples with their reported GI50 follow.
Substance Smiles	GI50
COC(=O)CCc1c[nH]c2ccc(N(CCCl)CCCl)cc12	3.4 µM
CCOC(=O)c1sc(-c2ccc(OS(=O)(=O)c3ccc(Br)s3)c(C=O)c2)nc1C	6.15 µM

Attention now turns to another entry.
Check the records and state GI50 for Cc1nn(-c2nc3ccccc3[nH]2)c(N)c1-c1ccc(Cl)cc1 3.02 µM

* * *

# TGI per entry
test system: UACC-257 melanoma; assay: NCI tumour cell line growth inhibition, 48 h

Compound	Target System	TGI
N[C@H](C(=O)O)[C@H]1ON=C(Cl)[C@@H]1O	UACC-257 melanoma	> 550 µM
CCCCCCCCOC1C(O)C(O)C(O)C(O)C12CO2 (stereo unspecified)	UACC-257 melanoma	> 100 µM
O=C1CCC2(CC1CC(Sc1ccccc1)Sc1ccccc1)OCCO2 (stereo unspecified)	UACC-257 melanoma	> 100 µM
Cc1c(Cl)nc(Nc2nc3ccccc3[nH]2)nc1Cl	UACC-257 melanoma	> 100 µM
COc1ccc(S(=O)(=O)N2CC(C)(C)CN(S(=O)(=O)c3ccc(OC)cc3)C2C(=O)NO)cc1	UACC-257 melanoma	> 20 µM

Now look at this one.
Return value of TGI for input COc1ccc(S(=O)(=O)Nc2ccccc2C(=O)O)cc1 , no commentary. > 100 µM

* * *

test system: SK-MEL-28 melanoma; assay: NCI tumour cell line growth inhibition, 48 h
Measured Attribute: TGI

Molecule	Target System	Measured Attribute	Result
[N-]=[N+]=C1N=CN=C1c1ncn[nH]1	SK-MEL-28 melanoma	TGI	> 100 µM
CC(=O)N=C1N(/C=C2\C(=O)Oc3ccccc3C2=O)C(=O)/C(=C/c2ccc(OC(C)=O)cc2)N1C	SK-MEL-28 melanoma	TGI	> 100 µM

Specify measured TGI for S=C(NC1=NCC(CN2CCN(c3ccccc3)CC2)O1)Nc1ccccc1 (stereo not drawn) . > 100 µM

* * *

tested on: LOX IMVI melanoma; experiment: NCI tumour cell line growth inhibition, 48 h
Examples of molecules with documented GI50 follow.

Some molecules with recorded GI50:
Molecule	GI50
N[C@H](C(=O)O)[C@H]1ON=C(Cl)[C@@H]1O	1540 nM
CC(=O)[CH-]C(C)=O.CC(=O)[CH-]C(C)=O.[CH2-]CCC.[CH2-]CCC.[Sn+4]	174 nM

Look up GI50 of COc1ccc(S(=O)(=O)N2CC(C)(C)CN(S(=O)(=O)c3ccc(OC)cc3)C2C(=O)NO)cc1 and report it. > 11100 nM

For the molecule Nc1ccc(C2=NN(c3ccccc3)C(c3ccc(Cl)cc3)C2)cc1 (centres undefined) , report GI50. 1660 nM

Provide one value: measured GI50 of Cc1nn(-c2nc3ccccc3[nH]2)c(N)c1-c1ccc(Cl)cc1 5020 nM

Find the measured GI50 of Cc1sc2nc(-c3ccncc3)c(/C=N/N=C(N)N)n2c1C and report it. 28200 nM

Given CC[N+](CC)=c1sc2c(s1)C(c1ccc(Cl)cc1)Oc1ccc(Cl)cc1-2 (centres undefined) , respond with its GI50. 1510 nM

Given the molecule Cc1ccc(C)c2c1C(O)(C#Cc1ccccc1)c1ccccc1C2(O)C#Cc1ccccc1 (centres undefined) , write its reported GI50. 3440 nM

Give the reported value of GI50 for this record: O=c1c(Oc2ccc(F)cc2F)cc2cnc(NC3CCOCC3)nc2n1CCCO > 25000 nM

* * *

Property: TGI; scope: individual compounds
tested on: OVCAR-4 ovarian; assay: NCI tumour cell line growth inhibition, 48 h

In the examples that follow, each entry is paired with its recorded TGI.
Compound	Target System	TGI
CC1CCC2(CC1)NN=c1s/c(=C\c3ccc(O)cc3)c(=O)n1N2 (centres undefined)	OVCAR-4 ovarian	> 100 µM
COc1cc(NC(N)=NCCC(C)(C)Oc2ccc(C(F)(F)F)cc2)ncc1C#N	OVCAR-4 ovarian	3.07 µM
CC(=O)O[C@H]1CC[C@@]2(C)C(=CC[C@H]3[C@@H]4CC[C@H](c5cc(C(F)(F)F)n(C(C)=O)n5)[C@@]4(C)CC[C@@H]32)C1	OVCAR-4 ovarian	15.6 µM

Tell me its TGI given CCC[CH2][Sn]1([CH2]CCC)[O]CC(Cc2ccccc2)[O]1 (centres undefined) as the entry. 26 µM

Return TGI (reported value) for this compound: FC(F)(F)c1nc2nc(Cl)c(Cl)nc2n1CCCN1CCOCC1 > 100 µM

Answer with reported TGI of CCOC(=O)c1cc(-c2cc(OC)c(OC)c([N+](=O)[O-])c2)c([N+](=O)[O-])n1C > 10 µM

Write down TGI measured for item COC(=O)[C@@H](C)C[C@H](Cc1ccccc1)NC(=O)c1csc(CC[C@H](C(C)C)N(C)C(=O)[C@@H](NC(=O)[C@H]2CCCCN2C)C(C)C)n1 > 33.3 µM

Give reported TGI value for CCC12CCCN(Cc3ccccc3)C1c1c([nH]c3ccccc13)C(C(=O)OC)C2 (centres undefined) > 10 µM

Look up and state reported TGI for COC(=O)/C=C\n1c(C)cc(=O)[nH]c1=O > 100 µM

Return TGI (reported value) for this compound: c1cc(N(CCn2cccn2)CCn2cccn2)cc(N(CCn2cccn2)CCn2cccn2)c1 > 100 µM

Given the compound Cc1cnc2sn(-c3ccc(Oc4ccccc4)cc3)c(=O)c2c1 , write its reported TGI. 32.9 µM

Give reported TGI value for Nc1nc(SCc2ccc([N+](=O)[O-])cc2)nc2c1ncn2C1OC(COP(=O)(O)O)C(O)C1O (centres undefined) > 100 µM

Tell me its TGI given CC(O)c1cc2c(s1)C(=O)c1sccc1C2=O (centres undefined) as the entry. 0.344 µM
